Measured values drawn from PubChem BioAssay (Tox21) for this set.

Test: A CellTox Green Cytotoxicity Assay to monitor cytotoxicity in HepG2 cells - 32 hour (AID 1224883); also: nearly all actives have a fitted effect of over 50% in size
Details: CellTox Green fluorescence; series mostly up to 76.8 µM
Inconclusive results are not listed. Active and inactive are the calls of the source. Calls follow the shape of the dose curve; as a rule, active = well fitted activation curve with a large enough effect in the repeat runs; inconclusive = weak or mixed curves; inactive = flat fitted curve, though single readings scatter.
Labels: active, inactive

| COMPOUND | ANSWER_LABEL |
| --- | --- |
| Brc1ccccn1 | inactive |
| Clc1ccc(C(c2ccccc2Cl)C(Cl)Cl)cc1 (stereo not drawn) | inactive |
| Clc1ccc(C(Cn2ccnc2)OCc2ccsc2Cl)c(Cl)c1 (stereo not drawn) | active |
| CCCCCCCCCCCCCCNCCO | active |
| CC(=O)Nc1ccc(O)cc1 | inactive |
| CC(=O)C=O | inactive |
| C=CC(=O)OCC(O)COc1ccccc1 (stereo not drawn) | inactive |
| CN(C)CCN1CCOCC1 | inactive |

----------
Test: A CellTox Green Cytotoxicity Assay to monitor cytotoxicity in HEK293 cells - 40 hour (AID 1224871); also: nearly all actives have a fitted effect of over 45% in size; also: potency is read from the fitted curve at half-maximal effect
Settings: CellTox Green fluorescence; series mostly up to 76.8 µM
Inconclusive results are not listed. The source made the active and inactive calls. The call rests on the fitted dose curve; in most records, active means well fitted activation curve with a large enough effect in the repeat runs; inconclusive means weak or mixed curves; inactive means flat fitted curve, though single readings scatter.

| COMPOUND | Potency |
| --- | --- |
| CCN(CC)CCNc1ccc(CO)c2sc3ccccc3c(=O)c12 | 23.9 µM (active) |
| CNC(=O)c1cc(Oc2ccc(NC(=O)Nc3ccc(Cl)c(C(F)(F)F)c3)cc2)ccn1 | inactive |
| CCOC(=O)[C@@](C)(N)Cc1ccc(O)c(O)c1 | inactive |
| CC(NCCC(c1ccccc1)c1ccccc1)c1ccccc1 (configuration not stated) | 21.3 µM (active) |
| C[Si](C)O[Si](C)C | inactive |
| CC(C(O)c1ccccc1)N(C)CCOC(c1ccccc1)c1ccccc1 (configuration not stated) | 26.8 µM (active) |
| CCOC(OCC)C(=O)c1ccccc1 | inactive |

----------
Assay: qHTS assay for small molecules that induce genotoxicity in human embryonic kidney cells expressing luciferase-tagged ATAD5 - cell viability (AID 651634); also: nearly all actives have a fitted effect of over 25% in size
Settings: HEK293T ATAD5-luc cells viability, CellTiter-Fluor, 15.5 h; series mostly up to 83.3 µM
Records with an inconclusive call do not appear. Calls of active or inactive are those of the source. Calls follow the shape of the full dose curve.
Labels: active, inactive

| MOLECULE | ANSWER_LABEL |
| --- | --- |
| CCCCN(CCCC)CCC(O)c1cc2c(Cl)cc(Cl)cc2c2cc(C(F)(F)F)ccc12 (stereo not given) | inactive |
| c1ccc(Nc2cccc3ccccc23)cc1 | inactive |
| O=C(Nc1ccc(Cl)c(Cl)c1)c1cc(Cl)cc(Cl)c1O | active |
| Cc1cc2c(C(C)C)c(O)c(O)c(C=O)c2c(O)c1-c1c(C)cc2c(C(C)C)c(O)c(O)c(C=O)c2c1O | active |
| C=CC(C)(CCC=C(C)C)OC(=O)/C=C/c1ccccc1 (stereo not given) | inactive |

----------
Test: qHTS assay to identify small molecule antagonists of the progesterone receptor (PR) signaling pathway - cell viability counter screen (AID 1346798); also: nearly all actives have a fitted effect of over 50% in size
Conditions: PR-UAS-bla HEK293T viability, CellTiter-Glo luminescence, 16 h; series mostly up to 92.4 µM
Excerpt: National Center for Advancing Translational Sciences [NCATS] NIH Chemical Genomics Center [NCGC] U.S. Environmental Protection Agency [EPA] National Institutes of Environmental Health Sciences [NIEHS] National Toxicology Program [NTP] U.S. Food and Drug Administration [FDA] Progesterone receptor (PR), a nuclear hormone receptor, plays an important role in development, metabolic homeostasis and reproduction. It is activated by the steroid hormone progesterone. […]
Results filed as inconclusive are left out. Active and inactive are the calls of the source. The call rests on the fitted dose curve; in most records, active means well fitted cell-killing curve with a large enough effect in the repeat runs; inconclusive means weak or mixed curves, or effect the other way; inactive means no such curve, though single readings can be large or run the other way.
Labels: active, inactive

| COMPOUND | ANSWER_LABEL |
| --- | --- |
| O=C(O)CC(=O)O | inactive |
| CCCCCCCCCCCCCC[n+]1ccccc1 | active |
| Cc1ccc(CCn2c3c(c4cc(Cl)ccc42)CN(C)CC3)cn1 | active |
| CCOC(/C=C(\C)CCC=C(C)C)OCC | inactive |
| CC=O | active |
| CN(Cc1cc(Br)cc(Br)c1N)C1CCCCC1 | inactive |
| CCO[Si](CCCSSSSCCC[Si](OCC)(OCC)OCC)(OCC)OCC | inactive |
| CC(=O)Nc1ccc(O)cc1 | inactive |
| C/C=C/c1ccc(OC)c(OC)c1 | inactive |
| SCCCCCCCCS | inactive |
| CCCC(CC)CCCCCCCN (stereo unspecified) | inactive |
| CCCCCCCCCCCC(=O)N(CC)CC | inactive |
| Nc1cc(Cl)c([N+](=O)[O-])cc1O | inactive |
| Oc1ccc(-c2ccc(O)cc2)cc1 | inactive |
| CN1[C@@H]2CC[C@@H]1CC(OC(=O)C(CO)c1ccccc1)C2 (stereo partly specified) | inactive |
| CCCCCCCCCCc1ccccc1 | inactive |
| C=C(C)CCCC | inactive |
| CCCCCCOc1ccc(O)cc1 | inactive |
| CCN(CC)c1cccc(C)c1 | inactive |
| CCC(C)(C)c1cc(O)c(C(C)(C)CC)cc1O | inactive |
| OCCCCl | inactive |
| CC(C)N=C(N)/N=C(\N)Nc1ccc(Cl)cc1 | inactive |
| CCCCCCCCCCCCCc1ccccc1 | inactive |
| CCCCCCS | inactive |
| CCc1cccc(CC)c1NC(=O)C(=O)O | inactive |
| CCCCCCCOC(=O)c1ccc(O)cc1 | inactive |
| Oc1ccc(-c2ccccc2)c(Cl)c1 | inactive |
| O=C1C=CC(=O)N1c1ccccc1 | active |
| CCCC(O)C(O)CO (stereo unspecified) | inactive |
| Cc1cccc(C)c1NC(=O)CN1CCN(CCCC(c2ccc(F)cc2)c2ccc(F)cc2)CC1 | active |
| COc1cc(C(=O)NS(=O)(=O)c2ccccc2C)ccc1Cc1cn(C)c2ccc(NC(=O)OC3CCCC3)cc12 | inactive |
